From: patent US12257247B2

Recorded DC50 by entry
Target: VAV1 (Homo sapiens, UniProt P15498+Q96SW2)
Construct: A heterozygous VAV1 C-terminal HiBiT knock-in pool was generated at Monte Rosa Therapeutics from a clonal Jurkat cell; endogenous in cells; host or cells: Jurkat clone stably expressing LgBiT, homozygous GSPT1-G575N; heterozygous VAV1-HiBiT knock-in pool
Experiment: VAV1 degradation activity, VAV1-HiBiT knock-in Jurkat luminescence assay (Example A, Table 1)
Format: cell-based
Conditions: VAV1-HiBiT knock-in Jurkat cells, luminescence read at 6 and 24 hours; read-out: VAV1 DC50
metric name: DC50 (µM)

1. O=C1CCC(c2cccc(-c3ccc(C(=O)n4cccc4)cc3)c2Cl)C(=O)N1 (centres unmarked)    0.127
2. COc1cc(-c2cccc(C3CCC(=O)NC3=O)c2Cl)ccc1C(F)F (centres unmarked)    1.53
3. C[C@@H]1CCC(=O)N1c1ccc(-c2cccc(C3CCC(=O)NC3=O)c2Cl)cc1 (some centres unmarked)    0.0139
4. O=C1CCC(c2cccc(-c3ccc(N4Cc5nccn5CC4=O)cc3)c2Cl)C(=O)N1 (centres unmarked)    0.015
5. COc1ccn(Cc2ccc(-c3cccc(C4CCC(=O)NC4=O)c3Cl)cc2)c(=O)c1 (centres unmarked)    0.0316
6. O=C1CCC(c2cccc(-c3ccc(N4CCCC4=O)cc3)c2Cl)C(=O)N1 (centres unmarked)    0.283
7. O=C1CCC(c2cccc(-c3ccc(C4COC4)cc3)c2Cl)C(=O)N1 (centres unmarked)    4.84
8. CC1(C)COCC(=O)N1Cc1ccc(-c2cccc(C3CCC(=O)NC3=O)c2Cl)cc1 (centres unmarked)    0.0293
9. O=C1CCC(c2cccc(-c3ccc4[nH]ccc4c3)c2Cl)C(=O)N1 (centres unmarked)    0.0187
10. O=C1CCC(c2cccc(-c3ccc(Cn4ccnc4)cc3)c2Cl)C(=O)N1 (centres unmarked)    0.0522
11. O=C1CCC(c2cccc(-c3ccc(CN4Cc5ccncc5C4=O)cc3)c2Cl)C(=O)N1 (centres unmarked)    0.0712
12. O=C1CCC(c2cccc(-c3ccc(N4CC5CC5CC4=O)cc3)c2Cl)C(=O)N1 (centres unmarked)    0.00964
13. O=C1CCC(c2cccc(-c3ccc(CN4C(=O)CCC45CC5)cc3)c2Cl)C(=O)N1 (centres unmarked)    0.0101
14. O=C1CCC(c2cccc(-c3cnc(Cc4ncco4)c(F)c3)c2Cl)C(=O)N1 (centres unmarked)    1.57
15. Nc1ccc(-c2cccc(C3CCC(=O)NC3=O)c2Cl)cc1OC(F)F (centres unmarked)    0.482

----------
Reported values of Dmax for individual entries
Target: VAV1 (Homo sapiens, UniProt P15498+Q96SW2)
Construct: A heterozygous VAV1 C-terminal HiBiT knock-in pool was generated at Monte Rosa Therapeutics from a clonal Jurkat cell; endogenous in cells; host or cells: Jurkat clone stably expressing LgBiT, homozygous GSPT1-G575N; heterozygous VAV1-HiBiT knock-in pool
Assay: VAV1 degradation activity, VAV1-HiBiT knock-in Jurkat luminescence assay (Example A, Table 1)
Assay type: cell-based
Details: Jurkat, VAV1-HiBiT knock-in Jurkat cells, luminescence read at 6 and 24 hours; read-out: VAV1 Dmax %, class
metric name: Dmax

1) Cc1ccc(=O)n(Cc2ccc(-c3cccc(C4CCC(=O)NC4=O)c3Cl)cc2)c1 (stereo not shown) [Compound 188]    > 90%
2) Cn1ccc(CCc2ccc(-c3cccc(C4CCC(=O)NC4=O)c3Cl)cn2)n1 (stereo not shown) [Compound 249]    < 60%
3) O=C1CCC(c2cccc(-c3ccc(N4C(=O)OCCC45CC5)cc3)c2Cl)C(=O)N1 (stereo not shown) [Compound 345]    > 90%
4) O=C1CC[C@H](c2cccc(-c3ccc(Cn4ccccc4=O)cc3)c2Cl)C(=O)N1 [Compound 201]    60 to 90%
5) O=C1CCC(c2cccc(-c3ccc(CN4CC(C(F)(F)F)OCC4=O)cc3)c2Cl)C(=O)N1 (stereo not shown) [Compound 258]    > 90%
6) O=C1CCC(c2cccc(-c3ccc(Cc4ncccn4)nc3)c2Cl)C(=O)N1 (stereo not shown) [Compound 400]    60 to 90%
7) CC1(C)CCN(Cc2ccc(-c3cccc(C4CCC(=O)NC4=O)c3Cl)cc2)C(=O)C1 (stereo not shown) [Compound 285]    > 90%
8) O=C1CCC(c2cccc(-c3ccc(N4CC(C(F)(F)F)OCC4=O)cc3)c2Cl)C(=O)N1 (stereo not shown) [Compound 306]    60 to 90%
9) O=C1CCC(c2cccc(-c3ccc(N4CCC4)cc3)c2Cl)C(=O)N1 (stereo not shown) [Compound 195]    60 to 90%
10) O=C1CCC(c2cccc(-c3ccc(-n4c(C(F)F)cccc4=O)cc3)c2Cl)C(=O)N1 (stereo not shown) [Compound 238]    > 90%
11) CN1CCC2(CC2)N(c2ccc(-c3cccc(C4CCC(=O)NC4=O)c3Cl)cc2)C1=O (stereo not shown) [Compound 366]    > 90%
12) O=C1CCC(c2cccc(-c3ccc(CN4C(=O)CCCC4C(F)(F)F)cc3)c2Cl)C(=O)N1 (stereo not shown) [Compound 262]    > 90%
13) O=C1CCC(c2cccc(-c3ccc(CN4C(=O)COCC45CC5)cc3)c2Cl)C(=O)N1 (stereo not shown) [Compound 264]    60 to 90%
14) O=C1CCC(c2cccc(-c3ccc(CN4C(=O)CCn5nccc54)cc3)c2Cl)C(=O)N1 (stereo not shown) [Compound 253]    60 to 90%
15) Cc1nccn1Cc1ccc(-c2cccc(C3CCC(=O)NC3=O)c2Cl)cc1 (stereo not shown) [Compound 111]    60 to 90%
16) O=C1CCC(c2cccc(-c3ccc(N4CC5(COC5)CC4=O)cc3)c2Cl)C(=O)N1 (stereo not shown) [Compound 386]    < 60%

----------
Biological target: VAV1 (Homo sapiens, UniProt P15498+Q96SW2)
Construct: A heterozygous VAV1 C-terminal HiBiT knock-in pool was generated at Monte Rosa Therapeutics from a clonal Jurkat cell; endogenous in cells; host or cells: Jurkat clone stably expressing LgBiT, homozygous GSPT1-G575N; heterozygous VAV1-HiBiT knock-in pool
Test: VAV1 degradation activity, VAV1-HiBiT knock-in Jurkat luminescence assay (Example A, Table 1)
Format: cell-based
Conditions: VAV1-HiBiT knock-in Jurkat cells, luminescence read at 6 and 24 hours; read-out: VAV1 DC50 (nM), class
Here, each record is paired with measured DC50 data.
metric name: DC50

1. Cn1ccc(COc2ccc(-c3cccc(C4CCC(=O)NC4=O)c3Cl)cn2)n1 (stereo not shown)    100 to 1000 nM
2. Cn1ccc(COc2ccc(-c3c(C#N)ccc(C4CCC(=O)NC4=O)c3Cl)cc2)n1 (stereo not shown)    > 1000 nM
3. Cn1ccc(COc2ccc(-c3cccc([C@H]4CCC(=O)NC4=O)c3Cl)cc2)n1    100 to 1000 nM
4. O=C1CCC(c2cccc(-c3ccc(-n4cccc(CC(F)F)c4=O)cc3)c2Cl)C(=O)N1 (stereo not shown)    ≤ 100 nM

----------
Target: VAV1 (Homo sapiens, UniProt P15498+Q96SW2)
Construct: A heterozygous VAV1 C-terminal HiBiT knock-in pool was generated at Monte Rosa Therapeutics from a clonal Jurkat cell; endogenous in cells; host or cells: Jurkat clone stably expressing LgBiT, homozygous GSPT1-G575N; heterozygous VAV1-HiBiT knock-in pool
Assay: VAV1 degradation activity, VAV1-HiBiT knock-in Jurkat luminescence assay (Example A, Table 1)
Format: cell-based
Settings: VAV1-HiBiT knock-in Jurkat cells, luminescence read at 6 and 24 hours; read-out: VAV1 DC50
So basically, the class depends on measured DC50, and the ranges are lower level (below 7 nM), middle level (7 nM to below 30 nM), upper level (30 nM or more)

1. O=C1CCC(c2cccc(-c3ccc(N4Cc5cccnc5C4=O)cc3)c2Cl)C(=O)N1 (centres unmarked) [Compound 465]    upper level
2. O=C1CCC(c2cccc(-c3ccc(OCCN4CCCC4)cc3)c2Cl)C(=O)N1 (centres unmarked) [Compound 136]    upper level
3. O=C1CCC(c2cccc(-c3ccc(CN4CCC(F)C4=O)cc3)c2Cl)C(=O)N1 (centres unmarked) [Compound 289]    upper level
4. CNc1ccc(-c2cccc(C3CCC(=O)NC3=O)c2Cl)cc1C (centres unmarked) [Compound 116]    middle level
5. Nc1ccc(-c2cccc(C3CCC(=O)NC3=O)c2Cl)cc1 (centres unmarked) [Compound 130]    upper level
6. CN1CCN(Cc2ccc(-c3cccc(C4CCC(=O)NC4=O)c3Cl)cc2)C1=O (centres unmarked) [Compound 388]    middle level
7. O=C1CCC(c2cccc(-c3ccc(N4C(=O)CCC45CC5)cc3)c2Cl)C(=O)N1 (centres unmarked) [Compound 414]    lower level
8. O=C1CCC(c2cccc(-c3ccc(N4CCCN(CC(F)(F)F)C4=O)cc3)c2Cl)C(=O)N1 (centres unmarked) [Compound 449]    lower level
9. O=C1CCC(c2cccc(-c3ccc(Cc4nccc(C5COC5)n4)cc3)c2Cl)C(=O)N1 (centres unmarked) [Compound 340]    lower level
10. O=C1CCC(c2cccc(-c3ccc(CS(=O)(=O)N4CCCC4)cc3)c2Cl)C(=O)N1 (centres unmarked) [Compound 423]    upper level
11. O=C1CCC(c2cccc(-c3ccc(-n4cccc(C(F)(F)F)c4=O)cc3)c2Cl)C(=O)N1 (centres unmarked) [Compound 226]    middle level
12. O=C1CCC(c2cccc(-c3ccc(N4C(=O)CC45CCC5)cc3)c2Cl)C(=O)N1 (centres unmarked) [Compound 405]    upper level
13. CN1CCCN(c2ccc(-c3cccc(C4CCC(=O)NC4=O)c3Cl)cc2)C1=O (centres unmarked) [Compound 247]    lower level
